Source listed as patent US20070185132A1.

tested on: Streptococcus pyogenes IID692; assay: MIC, agar dilution method, S. pyogenes IID692; assay type: cell-based; conditions: Mueller-Hinton agar with 5% defibrinated horse blood, 35° C., 5% CO2, 24 hours
readout.name: MIC (µg/mL)
Enter your answer as a number in µg/mL; do not include the unit.

Record CC(=O)NC[C@H]1CN(c2ccc(N3CCOCC3)c(F)c2)C(=O)O1 [Linezolid, reference compound] , field MIC: 1

In plain terms, `N#CC1(c2ccc(-c3ccc(N4C[C@H](Cn5ccnn5)OC4=O)cc3)cn2)CC1` has a documented MIC of 0.06

# MIC of `N[C@@H]1[C@H]2CN(c3ccc(-c4ccc(N5C[C@H](Cn6ccnn6)OC5=O)cc4F)cn3)C[C@@H]12` = 0.125

Item: `CC(=O)NC[C@H]1CN(c2ccc(-c3ccc(C4(C#N)CC4)nc3)c(F)c2)C(=O)O1` | MIC: 0.125

The compound listed as `CC(=O)NC[C@H]1CN(c2ccc(-c3ccc(C4(N)CC4)nc3)cc2)C(=O)O1` shows MIC equal to 0.25
